Target: Recombinant Apaf-1 produced in insect cells (rApaf-1) (Homo sapiens, UniProt O14727)
Construct: made in house; host or cells: insect cells (Apaf-1); E. coli (procaspase-9); cytochrome c purchased from Sigma
Sequence (O14727 1-1248): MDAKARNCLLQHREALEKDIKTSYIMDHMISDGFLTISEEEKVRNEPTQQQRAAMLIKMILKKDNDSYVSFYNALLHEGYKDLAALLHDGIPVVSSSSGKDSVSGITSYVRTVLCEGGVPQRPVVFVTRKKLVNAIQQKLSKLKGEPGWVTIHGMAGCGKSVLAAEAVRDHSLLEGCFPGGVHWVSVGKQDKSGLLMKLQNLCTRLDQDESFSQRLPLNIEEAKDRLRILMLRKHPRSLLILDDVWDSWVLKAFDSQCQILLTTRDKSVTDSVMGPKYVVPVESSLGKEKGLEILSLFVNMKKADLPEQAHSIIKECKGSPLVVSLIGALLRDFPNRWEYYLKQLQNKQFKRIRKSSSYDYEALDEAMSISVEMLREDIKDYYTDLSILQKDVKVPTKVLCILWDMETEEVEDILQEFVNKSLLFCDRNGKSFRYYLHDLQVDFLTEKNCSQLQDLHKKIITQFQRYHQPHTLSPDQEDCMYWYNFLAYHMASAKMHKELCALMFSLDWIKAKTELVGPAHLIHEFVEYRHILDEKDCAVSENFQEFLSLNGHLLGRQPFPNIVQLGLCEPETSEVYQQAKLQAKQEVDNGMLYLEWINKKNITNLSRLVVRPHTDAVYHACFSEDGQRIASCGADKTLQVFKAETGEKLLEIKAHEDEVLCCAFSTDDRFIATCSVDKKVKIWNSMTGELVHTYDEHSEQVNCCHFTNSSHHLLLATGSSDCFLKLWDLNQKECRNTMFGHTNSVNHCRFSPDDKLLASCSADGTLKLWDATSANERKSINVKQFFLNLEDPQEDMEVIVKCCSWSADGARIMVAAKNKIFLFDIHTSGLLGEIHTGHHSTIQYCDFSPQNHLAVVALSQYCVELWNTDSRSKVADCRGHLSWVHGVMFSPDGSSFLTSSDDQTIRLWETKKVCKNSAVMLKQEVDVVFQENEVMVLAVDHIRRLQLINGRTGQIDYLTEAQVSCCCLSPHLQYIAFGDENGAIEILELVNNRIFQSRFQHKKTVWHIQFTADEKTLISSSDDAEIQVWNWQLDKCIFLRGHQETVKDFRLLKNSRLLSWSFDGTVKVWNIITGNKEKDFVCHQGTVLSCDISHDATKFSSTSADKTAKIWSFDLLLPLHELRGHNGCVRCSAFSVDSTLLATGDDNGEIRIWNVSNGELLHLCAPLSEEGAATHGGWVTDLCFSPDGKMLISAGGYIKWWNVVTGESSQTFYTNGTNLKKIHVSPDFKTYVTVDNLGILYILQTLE
Assay: In vitro apoptosome formation inhibition assay
Assay type: biochemical
Settings: compound at 10 μM; rApaf-1 40 nM, dATP/Mg 100 μM, horse cytochrome c 0.1 μM, rprocaspase-9 0.1 μM; caspase-9 substrate Ac-LEDH-afc, afc release at 37° C.
Reported inhibition at 10 µM values follow for various molecules
Numbers only; they are read as %.

// worked examples, inhibition at 10 µM included
CCC(C)N(CC(N)=O)C(=O)CC1C(=O)N(CCc2ccc(Cl)cc2Cl)CC(=O)N1CCC(c1ccccc1)c1ccccc1 (stereo not shown) [I.1.20] = 36
COc1ccc2[nH]cc(CCN3C(=O)CN(CCc4ccc(Cl)cc4Cl)C(=O)C3CC(=O)NCCc3ccc(Cl)cc3Cl)c2c1 (stereo not shown) [Id.5.2] = 40
COC(=O)CN(CCc1ccc(Cl)cc1Cl)C(=O)CC1C(=O)N(CCc2ccc(Cl)cc2Cl)CC(=O)N1CCc1c[nH]c2ccc(OC)cc12 (stereo not shown) [Ic.5.2] = 23
COC(=O)CN(CCc1ccc(Cl)cc1Cl)C(=O)CC1C(=O)N(CCc2ccc(Cl)cc2Cl)CC(=O)N1CCc1c[nH]c2ccccc12 (stereo not shown) [Ic.3.2] = 29
O=C(O)CN(CCc1ccc(Cl)cc1Cl)C(=O)CC1C(=O)N(CCc2ccc(Cl)cc2Cl)CC(=O)N1Cc1ccc(F)cc1 (stereo not shown) [Ib.2.2] = 28

**Q:** Tell me inhibition at 10 µM reported for NC(=O)CN(CCc1ccccn1)C(=O)CC1C(=O)N(CCc2ccc(Cl)cc2Cl)CC(=O)N1CCC(c1ccccc1)c1ccccc1 (stereo not shown) [I.1.16]
**A:** 46

**Q:** Tell me inhibition at 10 µM reported for O=C(O)CN(CCc1ccc(Cl)cc1Cl)C(=O)CC1C(=O)N(CCc2ccc(Cl)cc2Cl)CC(=O)N1CCc1c[nH]c2ccccc12 (stereo not shown) [Ib.3.2]
**A:** 48

**Q:** Tell me inhibition at 10 µM reported for O=C(O)CN(CCc1ccc(Cl)cc1Cl)C(=O)CC1C(=O)N(CCc2ccc(Cl)cc2Cl)CC(=O)N1CCC(c1ccccc1)c1ccccc1 (stereo not shown) [Ib.1.2]
**A:** 72

**Q:** Tell me inhibition at 10 µM reported for NCCCCC(NC(=O)CN(CCc1ccc(Cl)cc1Cl)C(=O)CC1C(=O)N(CCc2ccc(Cl)cc2Cl)CC(=O)N1CCC(c1ccccc1)c1ccccc1)C(N)=O (stereo not shown) [If.1.2]
**A:** 80

**Q:** Tell me inhibition at 10 µM reported for NC(=O)CN(CCc1ccc(Cl)cc1Cl)C(=O)CC1C(=O)N(CCc2ccc(Cl)cc2Cl)CC(=O)N1CCc1ccc(-c2ccccc2)cc1 (stereo not shown) [Ia.6.2]
**A:** 29
